experiment.description: solvent given as SMILES
test.context: in ClCCl
Here the recorded absorption maximum is given for each entry.
Numeric only. Scale: nm

Worked cases, answers included:
O=Cc1ccc(-c2ccc(O)c(-c3nc4ccccc4s3)c2)s1; 350
COc1ccc(-c2cnc(C#Cc3ccccc3)o2)cc1OC; 330
N#CSC1=CC2=C(c3ccccc3)c3ccc(SC#N)n3[B-](F)(F)[N+]2=C1N1CCOCC1; 558
COc1ccc(-c2csc(/C(C#N)=N\Nc3ccc(C#N)cc3)n2)cc1; 404
CCCCc1ccc2ccc3c(CCCC)cc(CCCC)c4ccc1c2c34; 354
CCOC(=O)COc1ccc(/C=C/C2=C3C(C)=CC(C)=[N+]3[B-](F)(F)n3c2c2ccccc2c3-c2[nH]c(C)cc2C)cc1; 608
CCC1=C(C)C2=Cc3c4ccccc4c4n3[B-](c3ccc5cc6ccccc6cc5c3)(Oc3ccccc3-4)[N+]2=C1C (stereo not given); 627
F[B-]1(F)n2c(c3ccccc3c2-c2ccccc2)C=C2c3ccccc3C(c3ccccc3)=[N+]21; 634

Returns the measured absorption maximum for the input compound. Input: `CCn1c2sccc2c2c3nsnc3c3c4ccsc4n(CC)c3c21`
425

Entry `Cc1cc(-c2ccc(-c3ccccc3)cc2)cc(C)[o+]1` has what absorption maximum?
402

These data points were gathered from the Deep4Chem optical property database.
